# credit: PubChem BioAssay

Catalogue of composite z-score values
- target or system: Torsin-1A-interacting protein 2 (Homo sapiens) (UniProt Q8NFQ8)
- Sequence (Q8NFQ8 whole entry, looked up): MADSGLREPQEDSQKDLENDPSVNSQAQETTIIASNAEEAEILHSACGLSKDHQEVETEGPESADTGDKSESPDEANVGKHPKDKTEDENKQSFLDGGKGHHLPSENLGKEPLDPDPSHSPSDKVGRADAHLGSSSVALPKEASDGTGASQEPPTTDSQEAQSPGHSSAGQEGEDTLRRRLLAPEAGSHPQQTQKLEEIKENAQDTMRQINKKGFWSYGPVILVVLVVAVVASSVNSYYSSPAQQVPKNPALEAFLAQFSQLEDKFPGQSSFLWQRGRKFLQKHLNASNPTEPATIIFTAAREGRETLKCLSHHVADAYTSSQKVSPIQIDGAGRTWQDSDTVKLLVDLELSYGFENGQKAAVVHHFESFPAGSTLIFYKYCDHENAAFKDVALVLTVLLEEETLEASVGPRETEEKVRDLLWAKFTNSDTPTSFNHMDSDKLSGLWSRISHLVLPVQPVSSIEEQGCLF
- assay comment: small molecules binding lysate-expressed LULL1 – cell lysate, human LULL1 lysate, 635/667 nm fluorescence, primary screen (AID 1092);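 also: probe is lysate of COS7 cells overexpressing human LULL1; score merges per-feature 667 nm fluorescence with signal-to-noise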
- condition summary: small-molecule microarray, hLULL1 lysate binding, 635 nm fluorescence; higher = more signal
experimental endpoint: composite z-score

compound: Cc1cc(C)c(C(O)C2C=CC3C(=O)N(c4ccccc4)C(=O)C3N2Nc2ccccc2)c(C)c1 (centres undefined)
experimental endpoint: composite z-score
reported measurement: 3.47
--
compound: CO[C@H]1O[C@H](CO)[C@@H](OC(=O)Nc2cccc(F)c2)[C@H](OC(=O)Nc2ccc3c(c2)OCO3)[C@H]1OC(=O)Nc1ccc2c(c1)OCO2
experimental endpoint: composite z-score
reported measurement: 3.25
--
compound: CCOC(=O)C1=CCC(c2cccc(Cl)c2)O1 (centres undefined)
experimental endpoint: composite z-score
reported measurement: 0.744
--
compound: CC1CC/C=C\[C@H]2OC34C=CCN(c5ccc(Cl)cc5)C(=O)[C@H]3N(C(CO)C(C)C)C(=O)[C@]4(C)C2C(=O)O1 (some centres undefined)
experimental endpoint: composite z-score
reported measurement: 2.25

---

- Tested on: Inhibin beta A chain (activin A)
- assay comment: small molecules binding activin A – biochemical, small-molecule microarray, 635 nm fluorescence scan, primary screen (AID 1107);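 also: mouse activin A protein probed at 4.33 µg/mL on printed slides; score merges bound-protein fluorescence near 667 nm with spot signal-to-noise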
- condition summary: INHBA, higher = more signal
experimental endpoint: composite z-score

molecule: COc1ccc([Si](C)(C)[C@@H]2[C@@H](CCO)O[C@]3(C(=O)N(Cc4ccc(N5C(=O)c6ccccc6Oc6ccccc65)cc4)c4ccccc43)[C@H]2C)cc1
reported measurement: -0.557

molecule: COCCCNC(=O)[C@]1(Cc2ccccc2CN=[N+]=[N-])N=C(c2ccc(OCCCO)cc2)O[C@@H]1c1ccccc1CN=[N+]=[N-]
reported measurement: 0.413

molecule: CC(C)NC(=O)[C@@]1(Cc2ccccc2I)c2ccccc2C(=O)N(Cc2ccccc2C(F)(F)F)[C@H]1c1ccc(CO)cc1
reported measurement: 0.299

molecule: COCCOC(=O)N1C(=O)[C@@]2(c3ccccc31)[C@H](c1ccc(OCCO)cc1)N1[C@H](c3ccccc3)[C@H](c3ccccc3)OC(=O)[C@H]1[C@@H]2C(=O)NC[C@H](O)c1ccccc1
reported measurement: 0.526

molecule: COC(=O)[C@@]1(Cc2ccc(OC)cc2)[C@H]2c3cc(C(=O)N(C)C)n(CCF)c3C[C@H]2CN1C(=O)c1ccccc1
reported measurement: 0.854

molecule: CCCc1cc2c(n1Cc1ccc(OC)cc1)C(C)C1CN(C(=O)c3ccccc3)C(C)(C(=O)OC)C21 (configuration not stated)
reported measurement: 1.43

molecule: CN1C(=O)C2C=CC(C(O)c3cccc4ccccc34)N(NC(=O)OC(C)(C)C)C2C1=O (configuration not stated)
reported measurement: 0.844

---

- assay comment: plasmodial surface anion channel blockers, osmotic lysis – cell-based, P. falciparum Indochina, OD700, 18 h, primary screen (AID 1157)
- condition summary: P. falciparum Indochina infected erythrocytes, osmotic lysis OD700, 18 h; higher = more signal, called active from +8 up or from −8 down
# binning rule on z-score: bin 1 (below 0.1), bin 2 (0.1 to below 0.9), bin 3 (0.9 or more)

molecule: [N-]=[N+]=NCc1ccccc1C[C@@]1(C(=O)NCCN2CCOCC2)N=C(c2ccc(OCCCO)cc2)O[C@@H]1c1ccccc1CN=[N+]=[N-]
group label: bin 3
--
molecule: C=CCNC(=O)[C@@H]1[C@H]2C(=O)O[C@H](c3ccccc3)[C@H](c3ccccc3)N2[C@H](c2ccc(O)cc2)[C@@]12C(=O)Nc1ccc(C#CCCO)cc12
group label: bin 1
--
molecule: CCOC(=O)C1=CCC(c2cccc(Cl)c2)O1 (stereo unspecified)
group label: bin 1
--
molecule: COc1ccc([Si](C)(C)[C@@H]2[C@@H](CC(=O)N3Cc4ccccc4C[C@H]3CO)O[C@]3(C(=O)N(Cc4cccc(N5CCCCC5=O)c4)c4ccccc43)[C@H]2C)cc1
group label: bin 2
--
molecule: OCCCC1=CC(c2cccs2)N(Cc2cccc(OC(F)(F)F)c2)CC1 (stereo unspecified)
group label: bin 3
--
molecule: Cc1ccc(S[C@]2(C(=O)O)CC(=O)N(C3CCCCC3)[C@@H]2c2ccc(CO)cc2)cc1
group label: bin 1
--
molecule: COCCOC(=O)N1C(=O)[C@@]2(c3cc(C#CCNC(N)=O)ccc31)[C@H](C(N)=O)[C@H]1C(=O)O[C@H](c3ccccc3)[C@H](c3ccccc3)N1[C@@H]2c1ccc(OCCO)cc1
group label: bin 2
--
molecule: O=C(CS)NCCCCCNC(=O)[C@@H]1C[C@@H]2C(=O)N3CCC[C@H]3C(=O)N2[C@@H]1c1ccc(O)cc1
group label: bin 2
--
molecule: Cc1ccc(S[C@]2(C(=O)NCc3ccccc3)CC(=O)N(C3Cc4ccccc4C3)[C@@H]2c2ccc(CO)cc2I)cc1
group label: bin 1
--
molecule: CCCCC=C[C@@H](NC(=O)CCc1ccccc1)c1ccccc1
group label: bin 3
--
molecule: CC(C)[Si](C#C[Si](C(C)C)(C(C)C)C(C)C)(O[C@H](C)c1cn(Cc2cccc(Cl)c2)nn1)C(C)C
group label: bin 2
--
molecule: CC(C)CN1C(=O)[C@@]2(Cc3ccccc31)c1ccccc1C(=O)N(Cc1ccccc1)[C@H]2c1ccc(CO)cc1
group label: bin 2
--
molecule: COc1ccccc1CN1C(=O)c2ccccc2[C@](Cc2ccccc2I)(C(=O)NCCN2CCOCC2)[C@@H]1c1ccc(CO)cc1
group label: bin 1
--
molecule: CN(C)C(=O)[C@]1(Cc2ccccc2N=[N+]=[N-])N=C(c2ccc(OCCCO)cc2)O[C@@H]1c1ccccc1CN=[N+]=[N-]
group label: bin 3
--
molecule: COCCCNC(=O)[C@@]1(Cc2ccccc2I)c2ccccc2C(=O)N(Cc2ccccc2Cl)[C@H]1c1ccc(CO)cc1
group label: bin 2

---

- assay comment: probe aNog binding to arrayed compounds – biochemical, biotinylated probe, 635/667 nm fluorescence, primary screen (AID 1115);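 also: probe is biotinylated aNog protein used at 0.15 µg/mL for 1 h at 4 C; z-score combines 667 nm fluorescence of each spot with its signal to noise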
- condition summary: small-molecule microarray, higher = more signal

compound: COCCCNC(=O)[C@]1(CCS(=O)(=O)c2ccccc2)N=C(c2ccc(OCCCO)cc2)O[C@@H]1c1ccccc1
composite z-score: -0.315

compound: COc1cc(NN2C(C(O)c3ccc(I)cc3)C=CC3C(=O)N(C)C(=O)C32)cc(OC)c1OC (stereo unspecified)
composite z-score: -0.0247

compound: COc1ccccc1CN1C(=O)c2ccccc2[C@@]2(Cc3ccccc3N(C3CC3)C2=O)[C@@H]1c1ccc(CO)cc1
composite z-score: -0.422

compound: COC(=O)[C@@]1(Cc2ccccc2)[C@H]2c3cc(C(=O)N(C)C)n(Cc4ccc(O)c(OC)c4)c3C[C@H]2CN1C(=O)c1ccccc1
composite z-score: -0.322

compound: COCCOC(=O)N1C(=O)[C@@]2(c3cc(C#Cc4ccc(OC)cc4)ccc31)[C@H](c1ccc(OCCO)cc1)N1[C@H](c3ccccc3)[C@H](c3ccccc3)OC(=O)[C@H]1[C@@H]2C(N)=O
composite z-score: 0.683

compound: COCCOC(=O)N1C(=O)[C@@]2(c3cc(C#Cc4ccc(OC)cc4)ccc31)[C@H](C(=O)N1CCc3cc(OC)c(OC)cc3C1)[C@H]1C(=O)O[C@H](c3ccccc3)[C@H](c3ccccc3)N1[C@@H]2c1ccc(OCCO)cc1
composite z-score: 0.0637

---

- assay comment: optical density shifts of acrAB sulA E. coli – strain DRC41, OD650, 48 h, E. coli filamentation inducer project, primary screen (AID 1152);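 also: E. coli MC1000 strain DRC41 lacking acrAB efflux pump and sulA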
- condition summary: higher = more signal, called active from +8 up or from −8 down
Measured z-score, listed per entry.

compound: CC1CC/C=C\[C@H]2OC34C=CCN(c5ccc(Cl)cc5)C(=O)[C@H]3N(C(CO)C(C)C)C(=O)[C@]4(C)C2C(=O)O1 (stereo not given in full)
z-score: -0.397
--
compound: COc1ccc([Si](C)(C)[C@@H]2[C@@H](CCO)O[C@]3(C(=O)N(Cc4ccc(N5C(=O)c6ccccc6Oc6ccccc65)cc4)c4ccccc43)[C@H]2C)cc1
z-score: -0.572
--
compound: CC1C=C(CCCO)C=C(C(=O)OCCS(C)(=O)=O)C(C(=O)OCCS(C)(=O)=O)=CN1Cc1cccc(OC(F)(F)F)c1 (stereo not given)
z-score: -0.311
--
compound: COc1cc(C(O)C2C=CC3C(=O)NC(=O)C3N2Nc2ccc(Cl)cc2Cl)cc(OC)c1OC (stereo not given)
z-score: -1.52
--
compound: CCC[C@@H]1C[C@@]1(CCC)[C@@H](NC(=O)c1ccco1)c1ccc(Cl)cc1
z-score: -1.37
--
compound: C=CC[C@]1(C(=O)N(C)C)N=C(c2ccc(OCCCO)cc2)O[C@H]1c1ccccc1
z-score: 1.17
--
compound: COC(=O)[C@@]1(Cc2ccc(F)cc2)[C@H]2c3cc(C(=O)N(C)C)n(Cc4ccc(C)c(F)c4F)c3C[C@H]2CN1C(=O)c1ccccc1
z-score: -0.165
--
compound: CCOC(=O)C1=CC[C@@H](c2cccc(Br)c2)N(S(=O)(=O)c2ccc(C)cc2)[C@H]1c1ccc([N+](=O)[O-])cc1
z-score: -1.22
--
compound: COc1ccc([Si](C)(C)[C@@H]2[C@@H](CCO)O[C@]3(C(=O)N(Cc4ccccc4)c4ccc(N5CCCCC5=O)cc43)[C@H]2C)cc1
z-score: 2.13
--
compound: C=C(/C(=C/C[C@@H](OC(=O)c1ccncc1)c1ccccc1OCCO)c1cnc2ccccc2c1)C(C)C
z-score: -0.592
--
compound: COc1cccc(C[C@H]2C[C@@H](CO[Si](C(C)C)(C(C)C)C(C)C)N3C(=O)[C@]4(C(C)=O)O[C@]23[C@H]2C(=O)N(C)C(=O)[C@H]24)c1
z-score: -1.09
--
compound: CCCC=C(CCC)[C@@H](NS(=O)(=O)CC)c1ccccc1
z-score: -1.84
--
compound: COC(=O)[C@@]1(Cc2ccccc2)[C@H]2c3cc(C(=O)N(C)C)n(Cc4ccc(O)c(OC)c4)c3C[C@H]2CN1C(=O)c1ccccc1
z-score: -0.404
--
compound: CN1C(=O)C2C=CC(C(O)c3ccc(F)cc3)N(N3CCCCC3)C2C1=O (stereo not given)
z-score: -1.37
--
compound: NCCCCCCNC(=O)[C@H]1C[C@H]2C(=O)N3CCC[C@H]3C(=O)N2[C@H]1c1ccc(O)cc1
z-score: -0.247
